Tested on: VDR homodimer (NR concentration 270 nM)
Test Description: PBM binding z-score (relative to random genomic background probes); higher = stronger binding; sequences stand for … in GC…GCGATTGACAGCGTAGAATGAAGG
Property Name: PBM binding z-score

Example entries and their recorded answers appear below.
> print(dat)
                     primary.sequence        property.name  result
1  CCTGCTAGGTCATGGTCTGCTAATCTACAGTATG  PBM binding z-score   0.439
2  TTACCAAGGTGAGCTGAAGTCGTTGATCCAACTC  PBM binding z-score  -0.905
3  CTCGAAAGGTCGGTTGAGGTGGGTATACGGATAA  PBM binding z-score    1.06
4  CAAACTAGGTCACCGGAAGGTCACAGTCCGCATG  PBM binding z-score    3.04
5  TCTTGTAGATCAGCAGGTTGAGAAAGCTGGCCAA  PBM binding z-score  -0.222

Query string: Lookup: PBM binding z-score / VDR homodimer (NR concentration 270 nM) / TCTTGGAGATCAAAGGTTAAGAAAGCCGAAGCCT
Result string: -0.245

Query string: Lookup: PBM binding z-score / VDR homodimer (NR concentration 270 nM) / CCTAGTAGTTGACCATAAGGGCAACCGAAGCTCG
Result string: 0.728

Query string: Lookup: PBM binding z-score / VDR homodimer (NR concentration 270 nM) / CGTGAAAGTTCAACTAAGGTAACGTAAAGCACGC
Result string: 3.71

Query string: Lookup: PBM binding z-score / VDR homodimer (NR concentration 270 nM) / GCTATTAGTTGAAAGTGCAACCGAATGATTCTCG
Result string: 0.388

Query string: Lookup: PBM binding z-score / VDR homodimer (NR concentration 270 nM) / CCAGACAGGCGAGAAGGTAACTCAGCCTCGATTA
Result string: -0.366
